Property: Virus Inactivating Efficiency (LRV); scope: individual compounds
Tested on: influenza virus A/Aichi (H3N2)
Format: cell-based
Conditions: 0.15M, pH 4.0, 21.6° C., two minutes
Simply state the number, no unit and no words.

Example entries begin here.
>>> reading("O=C1CC[C@@H](C(=O)O)N1 [PCA, pyrrolidone carboxylic acid]")
4.05
>>> reading("O=C([O-])CC(O)(CC(=O)[O-])C(=O)[O-].[Na+].[Na+].[Na+] [sodium citrate, reference compound]")
2.66
>>> reading("CCCC(=O)N[C@@H](CCCNC(=N)N)C(=O)O [Nα-butyroyl-L-arginine]")
4.05

Could you now look at the following compound, please?
# return recorded Virus Inactivating Efficiency (LRV) for entry Cl.N=C(N)NCCC[C@H](N)C(=O)O [arginine hydrochloride] 3.87
